These molecules were tested on Staphylococcus aureus 503; MIC is the recorded read-out.
One number for each entry, in mg/L.

Examples with answers:
[[record]]
molecule = "CON=C1CN(c2c(F)cc3c(=O)c(C(=O)O)cn(C4CC4)c3c2F)CC12CNC2 [Example 3]"
observable = "MIC"
numeric_result = 0.098

[[record]]
molecule = "CON=C1CN(c2cc3c(cc2F)c(=O)c(C(=O)O)cn3C2CC2)CC12CNC2.CS(=O)(=O)O [Example 2]"
observable = "MIC"
numeric_result = 0.049

[[record]]
molecule = "CON=C1CN(c2cc3c(cc2F)c(=O)c(C(=O)O)cn3-c2ccc(F)cc2F)CC12CNC2.CS(=O)(=O)O.CS(=O)(=O)O [Example 6]"
observable = "MIC"
numeric_result = 0.049


Below are some molecules; for each one, tell me its MIC.
1. CON=C1CN(c2c(F)cc3c(=O)c(C(=O)O)cn(C4CC4)c3c2Cl)CC12CNC2 [Example 4]
2. CCON=C1CN(c2nc3c(cc2F)c(=O)c(C(=O)O)cn3C2CC2)CC12CNC2.CS(=O)(=O)O [Example 8]
3. CON=C1CN(c2nc3c(cc2F)c(=O)c(C(=O)O)cn3C2CC2)CC12CN(C)C2 [Example 10]

1. 0.025
2. 0.013
3. 0.025

----------
# Test system: Pseudomonas aeruginosa 9027
# assay.explanation: In vitro antibacterial activity (MIC), agar dilution
# Assay type: cell-based
# experimental.context: 2-fold agar dilution, Muller-Hinton agar, 18 hours at 37° C., read-out: minimum inhibitory concentration (MIC)
Please provide measured MIC for the entries that follow.
Give bare numbers, in µg/mL.

[[record]]
compound_string = "CON=C1CN(c2cc3c(cc2F)c(=O)c(C(=O)O)cn3-c2ccc(F)cc2F)CC12CNC2.CS(=O)(=O)O.CS(=O)(=O)O"
unit_of_measure = "µg/mL"
numeric_result = 3.12

[[record]]
compound_string = "CON=C1CN(c2c(F)cc3c(=O)c(C(=O)O)cn(C4CC4)c3c2Cl)CC12CNC2"
unit_of_measure = "µg/mL"
numeric_result = 0.781

[[record]]
compound_string = "CON=C1CN(c2nc3c(cc2F)c(=O)c(C(=O)O)cn3-c2ccc(F)cc2F)CC12CNC2.CS(=O)(=O)O"
unit_of_measure = "µg/mL"
numeric_result = 1.56

[[record]]
compound_string = "CON=C1CN(c2c(F)c(N)c3c(=O)c(C(=O)O)cn(C4CC4)c3c2F)CC12CN(C)C2"
unit_of_measure = "µg/mL"
numeric_result = 0.781


Let us move to another entry and its MIC.
Which MIC value belongs to CON=C1CN(c2nc3c(cc2F)c(=O)c(C(=O)O)cn3C2CC2)CC12CNC2.CS(=O)(=O)O ? 0.781

----------
# Test system: Esherichia coli DC0
observable: MIC (µg/mL)
Give bare numbers, in µg/mL.

[[record]]
molecule = "CON=C1CN(c2cc3c(cc2F)c(=O)c(C(=O)O)cn3C2CC2)CC12CNC2.CS(=O)(=O)O [Example 2]"
experimental_target = "Esherichia coli DC0"
numeric_result = 0.198

[[record]]
molecule = "C[C@@H]1CN(c2c(F)c(N)c3c(=O)c(C(=O)O)cn(C4CC4)c3c2F)C[C@H](C)N1 [Sparfloxacin, sparfloxacin, reference compound]"
experimental_target = "Esherichia coli DC0"
numeric_result = 0.195


Below are some molecules; for each one, tell me its MIC.
1. CCON=C1CN(c2c(F)c(N)c3c(=O)c(C(=O)O)cn(C4CC4)c3c2F)CC12CNC2.CS(=O)(=O)O [Example 9]
2. CON=C1CN(c2nc3c(cc2F)c(=O)c(C(=O)O)cn3C2CC2)CC12CN(C)C2 [Example 10]

0.195
0.391
